Test system: Streptococcus
method.notes: Antibacterial activity against Streptococcus group D after 18 to 24 hrs by disc diffusion method
Format: functional
experimental.readout: MIC (µM)
Your answer should be a plain number; it is taken to be in µM.

Query :: Fill in: MIC of CN[C@H](CC(C)C)C(=O)N[C@H]1C(=O)N[C@@H](CC(N)=O)C(=O)N[C@H]2C(=O)N[C@H]3C(=O)N[C@H](C(=O)N[C@H](C(=O)O)c4cc(O)cc(O)c4-c4cc3ccc4O)[C@H](O)c3ccc(c(Cl)c3)Oc3cc2cc(c3O[C@@H]2O[C@H](CO)[C@@H](O)[C@H](O)[C@H]2O[C@H]2C[C@](C)(N)[C@H](O)[C@H](C)O2)Oc2ccc(cc2Cl)[C@H]1O is ___
Result :: 0.78

Query :: Fill in: MIC of CCOC(=O)CCSC[C@H]1O[C@@H](n2cnc3c(N)cccc32)[C@H](O)[C@@H]1O is ___
Result :: 0.19

Query :: Fill in: MIC of Nc1cccc2c1ncn2[C@@H]1O[C@H](CSCCC(=O)O)[C@@H](O)[C@H]1O is ___
Result :: 0.38

Query :: Fill in: MIC of C=CCSC[C@H]1O[C@@H](n2cnc3c([N+](=O)[O-])cccc32)[C@H](O)[C@@H]1O is ___
Result :: 1.25

Query :: Fill in: MIC of Nc1ncnc2c1ncn2[C@@H]1O[C@H](CSCCC(=O)O)[C@@H](O)[C@H]1O is ___
Result :: 0.755

----------
System: Aspergillus fumigatus
method.notes: Antifungal activity against Aspergillus fumigatus by disc diffusion method
Assay type: functional
experimental.readout: MIC (µM)
Your answer should be a plain number; it is taken to be in µM.

Query :: Fill in: MIC of CCOC(=O)CCSC[C@H]1O[C@@H](n2cnc3c(N)cccc32)[C@H](O)[C@@H]1O is ___
Result :: 0.38

Query :: Fill in: MIC of Nc1cccc2c1ncn2[C@@H]1O[C@H](CSCCC(=O)O)[C@@H](O)[C@H]1O is ___
Result :: 0.75

Query :: Fill in: MIC of OC(Cn1cncn1)(Cn1cncn1)c1ccc(F)cc1F is ___
Result :: 0.52

Query :: Fill in: MIC of Clc1ccc(COC(Cn2ccnc2)c2ccc(Cl)cc2Cl)c(Cl)c1 (configuration not stated) is ___
Result :: 0.77

Query :: Fill in: MIC of C=CCSC[C@H]1O[C@@H](n2c(CC)nc3c([N+](=O)[O-])cccc32)[C@H](O)[C@@H]1O is ___
Result :: 2

Query :: Fill in: MIC of C=CCSC[C@H]1O[C@@H](n2cnc3c([N+](=O)[O-])cccc32)[C@H](O)[C@@H]1O is ___
Result :: 0.38

Query :: Fill in: MIC of Nc1ncnc2c1ncn2[C@@H]1O[C@H](CSCCC(=O)O)[C@@H](O)[C@H]1O is ___
Result :: 1.5

----------
Test system: Talaromyces marneffei
method.notes: Antifungal activity against Penicillium marneffei by disc diffusion method
Assay type: functional
experimental.readout: MIC (µM)
Your answer should be a plain number; it is taken to be in µM.

Query :: Fill in: MIC of Clc1ccc(COC(Cn2ccnc2)c2ccc(Cl)cc2Cl)c(Cl)c1 (configuration not stated) [MICONAZOLE] is ___
Result :: 0.77

Query :: Fill in: MIC of Nc1ncnc2c1ncn2[C@@H]1O[C@H](CSCCC(=O)O)[C@@H](O)[C@H]1O is ___
Result :: 1.5

Query :: Fill in: MIC of C=CCSC[C@H]1O[C@@H](n2c(CC)nc3c([N+](=O)[O-])cccc32)[C@H](O)[C@@H]1O is ___
Result :: 2

Query :: Fill in: MIC of Nc1cccc2c1ncn2[C@@H]1O[C@H](CSCCC(=O)O)[C@@H](O)[C@H]1O is ___
Result :: 0.75

Query :: Fill in: MIC of OC(Cn1cncn1)(Cn1cncn1)c1ccc(F)cc1F [FLUCONAZOLE] is ___
Result :: 0.52

Query :: Fill in: MIC of C=CCSC[C@H]1O[C@@H](n2cnc3c([N+](=O)[O-])cccc32)[C@H](O)[C@@H]1O is ___
Result :: 0.38

Query :: Fill in: MIC of CCOC(=O)CCSC[C@H]1O[C@@H](n2cnc3c(N)cccc32)[C@H](O)[C@@H]1O is ___
Result :: 0.38
